- Measurement protocol: Selectivity index, ratio of IC50 for cytotoxicity against human HFL1 cells to IC50 for antiproliferative activity against human HT-29 cells overexpressing NQO1
- Format: toxicity, cell-based
- Conditions: HFL1 cells versus HT-29 cells overexpressing NQO1, read-out: Ratio IC50
Observable: selectivity ratio

>  <Chemical structure>
C=C(C)[C@@H]1CC[C@]2(C(=O)O)CC[C@]3(C)[C@H](CC[C@@H]4[C@@]5(C)CC[C@H](OC(=O)CCCC(=O)OCc6cn(C)c7c6C(=O)C(OC)=CC7=O)[C@@](C)(COC(C)=O)[C@@H]5CC[C@]43C)[C@@H]12

>  <Observable>
selectivity ratio

>  <Measured number>
1.27

$$$$
>  <Chemical structure>
C=C(C)[C@@H]1CC[C@]2(C(=O)OCCOC(=O)CCC(=O)OCc3cn(C)c4c3C(=O)C(OC)=CC4=O)CC[C@]3(C)[C@H](CC[C@@H]4[C@@]5(C)CC[C@H](NC(=O)CCC(=O)N6CCNCC6)[C@@](C)(COC(C)=O)[C@@H]5CC[C@]43C)[C@@H]12

>  <Observable>
selectivity ratio

>  <Measured number>
1.77

$$$$
>  <Chemical structure>
C=C(C)[C@@H]1CC[C@]2(C(=O)O)CC[C@]3(C)[C@H](CC[C@@H]4[C@@]5(C)CC[C@H](O)[C@@](C)(CO)[C@@H]5CC[C@]43C)[C@@H]12

>  <Observable>
selectivity ratio

>  <Measured number>
1.06

$$$$
>  <Chemical structure>
C=C(C)[C@@H]1CC[C@]2(C(=O)OCCOC(=O)CCC(=O)OCc3cn(C)c4c3C(=O)C(OC)=CC4=O)CC[C@]3(C)[C@H](CC[C@@H]4[C@@]5(C)CCC(=O)[C@@](C)(COC(C)=O)[C@@H]5CC[C@]43C)[C@@H]12

>  <Observable>
selectivity ratio

>  <Measured number>
1.68

$$$$
